# System: Bacillus subtilis
# EXPERIMENTAL_PROTOCOL: Toxicity (MIC) of MAcBCE and MAkBCE compounds on B. subtilis
# Assay type: cell-based
# RUN_CONDITIONS: B. subtilis 168 WT with pRB374, 12 h, up to 400 μM
MEASURED_QUANTITY: toxicity / susceptibility of B. subtilis (MIC, FIG. 1)

Observe how each entry below is paired with its result.
>>> print(df.to_string())
                                   molecule        measured_on  experimental_value
0  CCCCCCCCCCc1ccc2c(c1)OCCOCCOCCOCCO2 [Compound 5-A-10]  Bacillus subtilis          most toxic
1  CCCCCCCCCC(=O)c1ccc2c(c1)OCCOCCOCCOCCO2 [Compound 5-O-10]  Bacillus subtilis          most toxic
2  CCCCCCCCCC(=O)c1ccc2c(c1)OCCOCCOCCO2 [Compound 4-O-10]  Bacillus subtilis           non-toxic
3  CCCCCCCCCCc1ccc2c(c1)OCCOCCOCCOCCOCCO2 [Compound 6-A-10]  Bacillus subtilis          most toxic
4  CCCCCCCCCC(=O)c1ccc2c(c1)OCCOCCOCCOCCOCCO2 [Compound 6-O-10]  Bacillus subtilis          most toxic

[in] Fill blank: measured toxicity / susceptibility of B. subtilis (MIC, FIG. 1) of the molecule CCCCCCCCCCc1ccc2c(c1)OCCOCCOCCO2 [Compound 4-A-10] is ____.
[out] non-toxic
